Tested on: Micrococcus luteus
ASSAY_REMARKS: Bactericidal activity against Micrococcus luteus MTCC 2470 incubated for 24 hrs
Assay type: functional
PARTICULARS: MTCC 2470, 24 h
Task for the reader: assign each of the following compounds its reported MBC.
Numbers only, in mg/L.

Reference set (5 entries):
- COMPOUND: "O=C(O)c1cn(C2CC2)c2cc(N3CCNCC3)c(F)cc2c1=O [CIPROFLOXACIN]"
  UNIT_SYMBOL: "mg/L"
  MBC: 0.9
- COMPOUND: "CCCCCCCCC[C@@H](O)[C@H](CO)n1cc(-c2ccccc2)nn1"
  UNIT_SYMBOL: "mg/L"
  MBC: 7.8
- COMPOUND: "CCCCCCCCC[C@@H](O)[C@H](CO)n1cc(-c2cccc(O)c2)nn1"
  UNIT_SYMBOL: "mg/L"
  MBC: 3.9
- COMPOUND: "CCCCCCCCC[C@@H](O)[C@@H](N)CO"
  UNIT_SYMBOL: "mg/L"
  MBC: 7.8
- COMPOUND: "CCCCCCCCC[C@@H](O)[C@H](CO)n1cc(CCO)nn1"
  UNIT_SYMBOL: "mg/L"
  MBC: 31.2

Please report MBC for every entry that follows.
1. CCCCCCCCC[C@@H](O)[C@H](CO)n1cc(CCCCCC)nn1
2. CCCCCCCCC[C@@H](O)[C@H](CO)n1cc(CO)nn1

[15.6, 15.6]
